- ASSAY OVERVIEW: caspase-8 TRAIL sensitization, hit retest, confirmation, cell-based, NB7+caspase-8, with/without TRAIL, luminescence panel (AID 651596)
- RECORDED CONDITIONS: NB7 neuroblastoma + caspase-8, without TRAIL, luminescence viability, without TRAIL, mean of runs, at 10 µM
Would you kindly list activity for each of these compounds?
Give bare numbers, in %.

Example results:
> print(dat)
                                   compound  attribute.measured  reported
1  COc1cc2c(cc1NC(=O)c1cccc([N+](=O)[O-])c1)oc1ccccc12            activity      -9.4
2    Cn1c(-c2ccccc2)cc2onc(-c3ccccc3)c2c1=O            activity      85.7
3  CCCCCc1c(-c2ccc(OC)c(OC)c2)ncn1CCc1ccccc1OC            activity      30.2
4  O=C(Nc1ccc(-c2nc3ccccc3[nH]2)cc1)C1CCCO1 (stereo unspecified)            activity        71
5              Cn1c(-c2ccc(Br)o2)nc2ccccc21            activity      61.8

Recorded activity of "CC(C)(C)c1ccc(C(=O)O/N=C(\N)c2ccccn2)cc1" , please.
99.8

# credit: PubChem BioAssay
